- method-summary: Cytotoxicity against human HepG2(2.2.15) cells
- Assay type: cell-based
In this section we review reported CC50 values for a set of compounds.
Report the value in µM with no unit label.

query_smiles=CC(=O)OCCc1c(-c2ccccc2Cl)c2cc(Cl)ccc2[nH]c1=O outcome_measure=CC50 numeric_value=27
query_smiles=CC(=O)NCC(=O)OCCc1c(-c2ccccc2Cl)c2cc(Cl)ccc2[nH]c1=O outcome_measure=CC50 numeric_value=110
query_smiles=C/C=C(\C)C(=O)OCCc1c(-c2ccccc2Cl)c2cc(Cl)ccc2[nH]c1=O outcome_measure=CC50 numeric_value=350

Requested read-out: CC50. Entry: CCCCC(=O)OCCc1c(-c2ccccc2Cl)c2cc(Cl)ccc2[nH]c1=O 200

Recorded CC50 of O=c1c(CCO)c(-c2ccccc2Cl)c2cc(Cl)ccc2n1Cc1ccccc1 , please. 26

Report CC50 for O=C(OCCc1c(-c2ccccc2Cl)c2cc(Cl)ccc2[nH]c1=O)c1ccccc1 please. 43

Name the reported CC50 value associated with the compound O=C(O)Cc1c(-c2ccccc2Cl)c2cc(Cl)ccc2[nH]c1=O 950

I'd like to know its CC50. The compound in question is N#CCC(=O)OCCc1c(-c2ccccc2Cl)c2cc(Cl)ccc2[nH]c1=O 100

====

- method-summary: Cytotoxicity against human HepG2(2.2.15) cells assessed as cell viability at 0.02 mM after 72 hrs by MTT assay
- Type: cell-based
- condition-summary: read-out: Activity
outcome-measure: viability at 72 h, 20 µM
Provide a numeric answer, followed by its unit.

Value lookup for viability at 72 h, 20 µM; key = COc1cccc(/C=C/C(=O)OCCc2c(-c3ccccc3Cl)c3cc(Cl)ccc3[nH]c2=O)c1 80.4%

====

As shown below, each of these molecules has a reported log10 CC50 value.
- method-summary: Cytotoxicity against human HepG2(2.2.15) cells
- Format: cell-based
Values below are the log10 of the recorded CC50, with µM as the unit.

query_smiles=C/C=C/C=C/C(=O)OCCc1c(-c2ccccc2Cl)c2cc(Cl)ccc2[nH]c1=O numeric_value=2.64
query_smiles=O=C(OCCc1c(-c2ccccc2Cl)c2cc(Cl)ccc2[nH]c1=O)C1CCCC1 numeric_value=1.66
query_smiles=CC(C)C(=O)OCCc1c(-c2ccccc2Cl)c2cc(Cl)ccc2[nH]c1=O numeric_value=1.79
query_smiles=O=C(OCCc1c(-c2ccccc2Cl)c2cc(Cl)ccc2[nH]c1=O)c1ccco1 numeric_value=1.99
query_smiles=C=CCn1c(=O)c(CCO)c(-c2ccccc2Cl)c2cc(Cl)ccc21 numeric_value=1.36

log10 CC50 for COCC(=O)OCCc1c(-c2ccccc2Cl)c2cc(Cl)ccc2[nH]c1=O ? 1.87

Dear colleague, I am looking for the recorded log10 CC50 of the following molecule: CC(=O)OCC(=O)OCCc1c(-c2ccccc2Cl)c2cc(Cl)ccc2[nH]c1=O 2.00

So what does the record say about log10 CC50 for O=CCc1c(-c2ccccc2Cl)c2cc(Cl)ccc2[nH]c1=O ? 2.08

====

Entries annotated with measured CC50
- method-summary: Cytotoxicity against human HepG2(2.2.15) cells
- Assay type: cell-based

Sample answers from the record:
query_smiles=Clc1ccc2nc3c(c(-c4ccccc4Cl)c2c1)CCS3 result="> 2400 µM"
query_smiles=Clc1ccc2nc3c(c(-c4ccccc4Cl)c2c1)CCO3 result="> 280 µM"
query_smiles=COc1cccc(/C=C/C(=O)OCc2c(-c3ccccc3Cl)c3cc(Cl)ccc3[nH]c2=O)c1 result="> 1800 µM"
query_smiles=O=C(/C=C/c1cccc(C(F)(F)F)c1)OCCc1c(-c2ccccc2Cl)c2cc(Cl)ccc2[nH]c1=O result="> 1400 µM"

Requested field: CC50. Item: O=C(OCCc1c(-c2ccccc2Cl)c2cc(Cl)ccc2[nH]c1=O)c1cccs1 > 1700 µM
